system: T1, ZFP SBS#1396 (synthetic)
T1 chain: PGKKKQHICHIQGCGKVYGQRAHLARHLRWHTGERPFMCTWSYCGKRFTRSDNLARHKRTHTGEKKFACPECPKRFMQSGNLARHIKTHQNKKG
assay procedure: EMSA
experimental setup: tags: MBP fusion
readout label: Kd (pM)
Output spec: scalar in pM, unitless text.

According to the records, this binder GAAGAGGGA (dsDNA) DNA 1: GAAGAGGGA DNA 2: TCCCTCTTC displays Kd of 107
